Tested on: HEK-293T
Assay: Multiplex assay against HEK293T
Assay type: toxicity, cell-based
Conditions: human, 48 h, 10 µM, compound concentration 10 uM, replicate 1
I'd appreciate it if you could supply Population Hoechst High Intensity Objects (%) values for the items below.
Express it in %; write the number only.

The value of Population Hoechst High Intensity Objects (%) measured for the compound `CC(=O)c1cc(-c2cc(C(=O)NC3CC3)ccc2C)c2ncccn12` turned out to be 17

The value of Population Hoechst High Intensity Objects (%) measured for the compound `CNc1oc(-c2cccc3ccccc23)nc1C#N` turned out to be 43

The value of Population Hoechst High Intensity Objects (%) measured for the compound Cc1nc(Cc2cccc(C(F)(F)F)c2)sc1-c1ccc(C(N)=O)nc1 [TP-024n] turned out to be 12

These entries and their values trace back to ChEMBL document CHEMBL4689842.
